These measurements were taken from ChEMBL document CHEMBL2169776.

Assay: Hemolytic activity against human RBCs after 1 hr by spectrophotometry
Type: ADME, cell-based
Details: erythrocyte
Square brackets hold non-standard residues; d marks the D form. Peptide text beside a SMILES is read from it. Nphe = O=C(O)CNCc1ccccc1; Nlys = NCCCCNCC(=O)O
Here the recorded HC10 is given for each entry.

Previously resolved entries follow.
CC(=O)N[C@@H](CCCCN)C(=O)N[C@@H](Cc1ccccc1)C(=O)N[C@@H](CCCCN)C(=O)N[C@@H](Cc1ccccc1)C(=O)N[C@@H](CCCCN)C(=O)N[C@@H](Cc1ccccc1)C(=O)N[C@@H](CCCCN)C(=O)N[C@@H](Cc1ccccc1)C(=O)N[C@@H](CCCCN)C(=O)N[C@@H](Cc1ccccc1)C(=O)N[C@@H](CCCCN)C(=O)N[C@@H](Cc1ccccc1)C(=O)N[C@@H](CCCCN)C(=O)N[C@@H](Cc1ccccc1)C(=O)N[C@@H](CCCCN)C(=O)N[C@@H](Cc1ccccc1)C(N)=O : < 1 µM
CC(=O)N[C@@H](CCCCN)C(=O)N(CCC(=O)N[C@@H](CCCCN)C(=O)N(CCC(=O)N[C@@H](CCCCN)C(=O)N(CCC(=O)N[C@@H](CCCCN)C(=O)N(CCC(=O)N[C@@H](CCCCN)C(=O)N(CCC(=O)N[C@@H](CCCCN)C(=O)N(CCC(=O)N[C@@H](CCCCN)C(=O)N(CCC(=O)N[C@@H](CCCCN)C(=O)N(CCC(N)=O)Cc1ccccc1)Cc1ccccc1)Cc1ccccc1)Cc1ccccc1)Cc1ccccc1)Cc1ccccc1)Cc1ccccc1)Cc1ccccc1 : > 128 µM
CC(=O)N[C@@H](CCCCN)CC(=O)N[C@H](CC(=O)N[C@@H](CCCCN)CC(=O)N[C@H](CC(=O)N[C@@H](CCCCN)CC(=O)N[C@H](CC(=O)N[C@@H](CCCCN)CC(=O)N[C@H](CC(=O)N[C@@H](CCCCN)CC(=O)N[C@H](CC(=O)N[C@@H](CCCCN)CC(=O)N[C@H](CC(=O)N[C@@H](CCCCN)CC(=O)N[C@H](CC(=O)N[C@@H](CCCCN)CC(=O)N[C@H](CC(N)=O)Cc1ccccc1)Cc1ccccc1)Cc1ccccc1)Cc1ccccc1)Cc1ccccc1)Cc1ccccc1)Cc1ccccc1)Cc1ccccc1 : 128 µM
CC(=O)N(CCCCN)CC(=O)N(CC(=O)N(CCCCN)CC(=O)N(CC(=O)N(CCCCN)CC(=O)N(CC(=O)N(CCCCN)CC(=O)N(CC(=O)N(CCCCN)CC(=O)N(CC(=O)N(CCCCN)CC(=O)N(CC(=O)N(CCCCN)CC(=O)N(CC(=O)N(CCCCN)CC(=O)N(CC(N)=O)Cc1ccccc1)Cc1ccccc1)Cc1ccccc1)Cc1ccccc1)Cc1ccccc1)Cc1ccccc1)Cc1ccccc1)Cc1ccccc1 (Ac-[Nlys][Nphe][Nlys][Nphe][Nlys][Nphe][Nlys][Nphe][Nlys][Nphe][Nlys][Nphe][Nlys][Nphe][Nlys][Nphe]-NH2) : > 128 µM
CC(=O)N(CCCCN)CCC(=O)N[C@@H](Cc1ccccc1)C(=O)N(CCCCN)CCC(=O)N[C@@H](Cc1ccccc1)C(=O)N(CCCCN)CCC(=O)N[C@@H](Cc1ccccc1)C(=O)N(CCCCN)CCC(=O)N[C@@H](Cc1ccccc1)C(=O)N(CCCCN)CCC(=O)N[C@@H](Cc1ccccc1)C(=O)N(CCCCN)CCC(=O)N[C@@H](Cc1ccccc1)C(=O)N(CCCCN)CCC(=O)N[C@@H](Cc1ccccc1)C(=O)N(CCCCN)CCC(=O)N[C@@H](Cc1ccccc1)C(N)=O : > 128 µM

The record that follows has no HC10 shown yet.
For this molecule ( CC(=O)N[C@@H](CCCCN)CC(=O)N[C@@H](Cc1ccccc1)C(=O)N[C@@H](CCCCN)CC(=O)N[C@@H](Cc1ccccc1)C(=O)N[C@@H](CCCCN)CC(=O)N[C@@H](Cc1ccccc1)C(=O)N[C@@H](CCCCN)CC(=O)N[C@@H](Cc1ccccc1)C(=O)N[C@@H](CCCCN)CC(=O)N[C@@H](Cc1ccccc1)C(=O)N[C@@H](CCCCN)CC(=O)N[C@@H](Cc1ccccc1)C(=O)N[C@@H](CCCCN)CC(=O)N[C@@H](Cc1ccccc1)C(=O)N[C@@H](CCCCN)CC(=O)N[C@@H](Cc1ccccc1)C(N)=O ), measured HC10 is 64 µM
